Experimental Target: hAT1R (Homo sapiens, UniProt P30556)
Sequence (P30556 whole entry): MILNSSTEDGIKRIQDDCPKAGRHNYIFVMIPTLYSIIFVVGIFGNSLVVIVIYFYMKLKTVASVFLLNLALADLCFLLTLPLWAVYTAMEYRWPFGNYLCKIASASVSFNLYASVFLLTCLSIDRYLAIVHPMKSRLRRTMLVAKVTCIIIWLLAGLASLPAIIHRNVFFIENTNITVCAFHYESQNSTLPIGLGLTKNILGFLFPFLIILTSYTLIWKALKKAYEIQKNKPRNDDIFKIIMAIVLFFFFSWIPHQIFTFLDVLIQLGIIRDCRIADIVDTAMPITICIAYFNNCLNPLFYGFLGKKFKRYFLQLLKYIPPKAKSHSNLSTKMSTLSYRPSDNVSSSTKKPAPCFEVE
Protocol Summary: FLIPR calcium flux assay, Part I: agonist activity
Format: cell-based
Condition Summary: ChanTest hAT1R stable cells; % MPE, percent of the maximal possible effect; read-out: hAT1R Agonist Efficacy Agonist (%) Ave
Starred links: 1 amine or outer side, 2 acyl side, 3 side chain; linkers in the order of their positions; H or OH if unused. Non-standard residues stand in square brackets, D forms with d. Residues, ends and D or L forms follow the SMILES beside them. X1 = O=C(CN(C[C@H](O)[C@@H](O)[C@H](O)[C@H](O)CO)[*:1])[*:2]; dBta = N[C@H](Cc1csc2ccccc12)C(=O)O; Chg = N[C@H](C(=O)O)C1CCCCC1
Metric: Emax (%)
The figure you give is taken to be in %; do not add the unit.

get_value(item= CNCC(=O)N[C@@H](CCCNC(=N)N)C(=O)N[C@H](C(=O)N[C@@H](Cc1ccc(O)cc1)C(=O)N[C@H](C(=O)N[C@@H](Cc1c[nH]cn1)C(=O)N1CCC[C@H]1C(=O)N[C@H](Cc1cccc2ccccc12)C(=O)O)C1CCCC1)C(C)C [Compound 15, Sar-Arg-Val-Tyr-Cpg-His-Pro-(D-1Nal)-OH] (HELM PEPTIDE1{[Sar].R.V.Y.[O=C([C@@H](N[*:1])C1CCCC1)[*:2]].H.P.[O=C(O)[C@@H](Cc1cccc2ccccc12)N[*:1]]}$$$$V2.0) , readout=Emax) returns 6

***
get_value(item= CNCC(=O)N[C@@H](CCCNC(=N)N)C(=O)N[C@H](C(=O)N[C@@H](Cc1ccc(O)cc1)C(=O)N[C@H](C(=O)N[C@@H](Cc1c[nH]cn1)C(=O)N1CCC[C@H]1C(=O)N[C@H](Cc1ccccc1C(F)(F)F)C(=O)O)C1CCCCC1)C(C)C [Compound 26] (HELM PEPTIDE1{[Sar].R.V.Y.[O=C([C@@H](N[*:1])C1CCCCC1)[*:2]].H.P.[O=C(O)[C@@H](Cc1ccccc1C(F)(F)F)N[*:1]]}$$$$V2.0) , readout=Emax) returns 12

get_value(item= CC(C)[C@H](NC(=O)[C@H](CCCNC(=N)N)NC(=O)CNC[C@H](O)[C@@H](O)[C@H](O)[C@H](O)CO)C(=O)N[C@@H](Cc1ccc(O)cc1)C(=O)N[C@H](C(=O)N[C@@H](Cc1c[nH]cn1)C(=O)N1CCC[C@H]1C(=O)N[C@H](Cc1csc2ccccc12)C(=O)O)C1CCCCC1 [Compound 41] (H-[X1]RVY[Chg]HP[dBta]-OH) , readout=Emax) returns 5

get_value(item= CNCC(=O)N[C@@H](CCCNC(=N)N)C(=O)N[C@H](C(=O)N[C@@H](Cc1ccc(O)cc1)C(=O)N[C@H](C(=O)N[C@@H](Cc1c[nH]cn1)C(=O)N1CCC[C@H]1C(=O)N[C@H](Cc1cccc2ccccc12)C(=O)O)C1CCCCC1)C(C)C [Compound 34, Sar-Arg-Val-Tyr-Chg-His-Pro-(D-1Nal)-OH] (HELM PEPTIDE1{[Sar].R.V.Y.[O=C([C@@H](N[*:1])C1CCCCC1)[*:2]].H.P.[O=C(O)[C@@H](Cc1cccc2ccccc12)N[*:1]]}$$$$V2.0) , readout=Emax) returns 5

get_value(item= CC(C)[C@H](NC(=O)[C@H](CCCNC(=N)N)NC(=O)CNC[C@H](O)[C@@H](O)[C@H](O)[C@H](O)CO)C(=O)N[C@@H](Cc1ccc(O)cc1)C(=O)N[C@H](C(=O)N[C@@H](Cc1c[nH]cn1)C(=O)N1CCC[C@H]1C(=O)N[C@H](Cc1ccccc1-c1ccccc1)C(=O)O)C(C)C [Compound 39] (HELM PEPTIDE1{[O=C(CNC[C@H](O)[C@@H](O)[C@H](O)[C@H](O)CO)[*:2]].R.V.Y.V.H.P.[O=C(O)[C@@H](Cc1ccccc1-c1ccccc1)N[*:1]]}$$$$V2.0) , readout=Emax) returns 8
